Target: human TLR9 (Homo sapiens)
Construct: host or cells: HEK-Blue cells (HEK293-derived reporter line)
Sequence (Q9NR96 26-1032): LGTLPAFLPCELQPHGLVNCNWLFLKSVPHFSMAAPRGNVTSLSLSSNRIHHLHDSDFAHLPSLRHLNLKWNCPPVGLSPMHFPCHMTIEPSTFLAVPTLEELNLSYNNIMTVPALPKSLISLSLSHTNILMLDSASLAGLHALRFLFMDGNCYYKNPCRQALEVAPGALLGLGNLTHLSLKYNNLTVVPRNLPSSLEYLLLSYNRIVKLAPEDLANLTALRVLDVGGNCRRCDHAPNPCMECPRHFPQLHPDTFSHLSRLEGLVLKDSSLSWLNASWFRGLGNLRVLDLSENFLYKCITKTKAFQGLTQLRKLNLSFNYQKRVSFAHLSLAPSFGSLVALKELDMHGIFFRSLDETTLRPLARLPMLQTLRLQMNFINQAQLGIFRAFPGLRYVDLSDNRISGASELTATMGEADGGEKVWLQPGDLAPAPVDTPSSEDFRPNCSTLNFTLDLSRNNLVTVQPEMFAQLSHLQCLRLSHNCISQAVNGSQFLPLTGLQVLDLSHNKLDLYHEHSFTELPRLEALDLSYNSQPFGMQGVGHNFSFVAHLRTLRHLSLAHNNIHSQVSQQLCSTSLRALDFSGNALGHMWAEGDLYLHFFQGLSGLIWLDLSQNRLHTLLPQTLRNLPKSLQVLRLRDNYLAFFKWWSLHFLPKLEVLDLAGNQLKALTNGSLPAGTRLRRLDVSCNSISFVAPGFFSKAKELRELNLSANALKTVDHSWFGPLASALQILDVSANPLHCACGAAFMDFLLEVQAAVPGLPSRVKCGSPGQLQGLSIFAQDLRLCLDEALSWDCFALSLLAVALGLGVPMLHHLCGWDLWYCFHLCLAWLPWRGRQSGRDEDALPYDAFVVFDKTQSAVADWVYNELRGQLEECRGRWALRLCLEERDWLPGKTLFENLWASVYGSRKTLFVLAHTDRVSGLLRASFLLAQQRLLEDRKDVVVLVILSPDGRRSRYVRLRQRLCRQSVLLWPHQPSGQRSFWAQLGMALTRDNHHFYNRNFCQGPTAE
Assay: TLR9 inhibition reporter assay (HEK-Blue cells, secreted embryonic alkaline phosphatase reporter)
Assay type: cell-based
Details: HEK-Blue cells overexpressing human TLR9, stimulated with ODN2006 5 nM, 22 hour incubation, reporter readout
MEASURED_PROPERTY: IC50 (nM)
Record the value in nM, omitting the unit from your answer.

MOLECULE	MEASURED_PROPERTY	MEASURED_VALUE
Cc1cc(-c2ccc(CN3CC4(C3)CN(C(C)C)C4)c(F)c2)cc2c1nc(-c1ccc(S(C)(=O)=O)cc1)n2C [Example 404]	IC50	69

--- query ---
Input Cc1cc(C2CCN(C3CCN(C(C)C)CC3)CC2)cc2c1nc(-c1ccc(S(N)(=O)=O)cc1)n2C [Example 112] . Output IC50: 130
